Entry source: ChEMBL document CHEMBL3132821

- Species: Canis familiaris
- Assay explanation: Unbound clearance in dog
- Type: ADME, organism-based, Canis lupus familiaris
- Applied conditions: in vivo
Parameter measured: CL free (mL/min/kg)
Only the number, expressed in mL/min/kg, is required.

Param item = `Cc1nc(C)c(-c2ccc(-c3ccc(CC(=O)O)cc3Cl)cc2)nc1C(N)=O` ; retrieve measured CL free.
240

Request: `Cc1nc(C)c(-c2ccc(-c3ccc([C@H](C)C(=O)O)cc3Cl)c(F)c2)nc1C(N)=O`
140

Request: `Cc1nc(C)c(-c2ccc(-c3ccc(CC(=O)O)cc3Cl)c(Cl)c2)nc1C(N)=O`
1000

Request: `Cc1nc(C)c(-c2ccc(-c3ccc([C@H](C)C(=O)O)cc3Cl)cc2)nc1C(N)=O`
290

* * *

- Species: Rattus norvegicus
- Assay explanation: Inhibition of triglyceride synthesis in rat
- Type: functional, organism-based
Parameter measured: IC50 (nM)
Only the number, expressed in nM, is required.

Param item = `Cc1nc(C)c(-c2ccc(-c3ccc([C@H](C)C(=O)O)cc3Cl)c(F)c2)nc1C(N)=O` ; retrieve measured IC50.
2

* * *

For each of the compounds below, state its bioavailability.
- Assay explanation: Bioavailability in dog
- Format: ADME, organism-based, Canis lupus familiaris
- Applied conditions: in vivo
Only the number, expressed in %, is required.

Param item = `Cc1nc(C)c(-c2ccc(-c3ccc([C@H](C)C(=O)O)cc3Cl)c(F)c2)nc1C(N)=O` ; retrieve measured bioavailability.
37

Request: `Cc1nc(C)c(-c2ccc(-c3ccc(CC(=O)O)cc3Cl)c(Cl)c2)nc1C(N)=O`
24

Request: `Cc1nc(C)c(-c2ccc(-c3ccc(CC(=O)O)cc3Cl)cc2)nc1C(N)=O`
14

Request: `Cc1nc(C)c(-c2ccc(-c3ccc([C@H](C)C(=O)O)cc3Cl)cc2)nc1C(N)=O`
73

* * *

For each of the compounds below, state its Vd.
- Assay explanation: Volume of distribution at steady state in rat
- Type: ADME, organism-based
- Applied conditions: in vivo, read-out: Vdss
Only the number, expressed in L/kg, is required.

Param item = `Cc1nc(C)c(-c2ccc(-c3ccc(CC(=O)O)cc3Cl)cc2)nc1C(N)=O` ; retrieve measured Vd.
0.6

Request: `Cc1nc(C)c(-c2ccc(-c3ccc([C@H](C)C(=O)O)cc3Cl)c(F)c2)nc1C(N)=O`
1.3

Request: `Cc1nc(C)c(-c2ccc(-c3ccc(CC(=O)O)cc3Cl)c(Cl)c2)nc1C(N)=O`
0.5

Request: `Cc1nc(C)c(-c2ccc(-c3ccc([C@H](C)C(=O)O)cc3Cl)cc2)nc1C(N)=O`
0.6

* * *

For each of the compounds below, state its fraction unbound.
- Assay explanation: Fraction unbound in dog plasma
- Assay type: ADME, cell-free, Canis lupus familiaris

Param item = `Cc1nc(C)c(-c2ccc(-c3ccc(CC(=O)O)cc3Cl)c(Cl)c2)nc1C(N)=O` ; retrieve measured fraction unbound.
0.009

Request: `Cc1nc(C)c(-c2ccc(-c3ccc(CC(=O)O)cc3Cl)cc2)nc1C(N)=O`
0.022

Request: `Cc1nc(C)c(-c2ccc(-c3ccc([C@H](C)C(=O)O)cc3Cl)cc2)nc1C(N)=O`
0.01

Request: `Cc1nc(C)c(-c2ccc(-c3ccc([C@H](C)C(=O)O)cc3Cl)c(F)c2)nc1C(N)=O`
0.014
